molecular target: 0N4R Tau fibrils (Homo sapiens, UniProt P10636); experiment: ^3H-THK5117 competition binding to tau fibrils in vitro; settings: 3 nM [^3H]-THK5117, recombinant 0N4R tau fibrils; average if run more than once
Sequence (P10636 1-383 isoform P10636-6): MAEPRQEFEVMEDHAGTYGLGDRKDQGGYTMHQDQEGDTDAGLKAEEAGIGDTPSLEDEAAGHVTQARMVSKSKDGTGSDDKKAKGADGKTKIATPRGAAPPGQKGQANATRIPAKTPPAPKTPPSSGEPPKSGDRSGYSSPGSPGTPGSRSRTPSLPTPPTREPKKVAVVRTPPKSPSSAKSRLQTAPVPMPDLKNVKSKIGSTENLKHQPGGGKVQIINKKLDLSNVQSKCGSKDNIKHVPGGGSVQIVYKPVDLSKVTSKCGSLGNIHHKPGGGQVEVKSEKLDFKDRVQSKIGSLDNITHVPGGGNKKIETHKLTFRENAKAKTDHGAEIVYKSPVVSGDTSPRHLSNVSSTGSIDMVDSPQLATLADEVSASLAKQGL
observable: pIC50
Give bare numbers, as −log10 of the molar value.

INSERT INTO measurements (compound, test_target, recorded_result) VALUES
  ('FCCOCCOCCOC1CCN(c2ccc(-c3nc4ccccc4s3)cn2)CC1 [Compound 6]', '0N4R Tau fibrils (Homo sapiens, UniProt P10636)', 7.80),
  ('CCOC(=O)c1ccc2nc(-c3cnc(N4CCC(CCF)CC4)nc3)sc2c1 [Compound 44]', '0N4R Tau fibrils (Homo sapiens, UniProt P10636)', 8.40),
  ('OCC1CCN(c2ncc(-c3nc4ccc(O)cc4s3)cn2)CC1 [Compound 57]', '0N4R Tau fibrils (Homo sapiens, UniProt P10636)', 7.92),
  ('c1ccc2oc(-c3ccc(N4CCCCC4)nc3)nc2c1 [Compound 14]', '0N4R Tau fibrils (Homo sapiens, UniProt P10636)', 7.66),
  ('FCC1CCN(c2ccc(-c3nc4ccccc4s3)cn2)CC1 [Compound 2]', '0N4R Tau fibrils (Homo sapiens, UniProt P10636)', 8.15);

Please go through the list and note pIC50 for each compound.
1. OCCC1CCN(c2ncc(-c3nc4ccccc4[nH]3)cn2)CC1 [Compound 49]
2. COc1ccc2nc(-c3cnc(N4CCC(CCO)CC4)nc3)sc2c1 [Compound 25]
3. OCC1CCN(c2ncc(-c3nc4ccc(OCCF)cc4s3)cn2)CC1 [Compound 58]
4. OCCC1CCN(c2ccc(-c3nc4ccc(OCC(O)CF)cc4s3)cn2)CC1 (stereo not shown) [Compound 37]
5. OCCC1CCN(c2ccc(-c3cc4ccccc4o3)c(F)n2)CC1 [Compound 46]
6. OC1CCN(c2ccc(-c3nc4ccccc4s3)cn2)CC1 [Compound 4]
7. COc1ccc2[nH]c(-c3ccc(N4CCC(CO)CC4)nc3F)cc2c1 [Compound 47]
8. OCC1CCN(c2ncc(-c3cc4cc(OCCF)ccc4[nH]3)cn2)CC1 [Compound 72]

1. 7.31
2. 8.52
3. 8.22
4. 7.85
5. 8.22
6. 7.37
7. 8.70
8. 8.15

Please go through the list and note pIC50 for each compound.
1. COc1ccc2nc(-c3cnc(N4CCC(CCOCCOCCOCCF)CC4)nc3)sc2c1 [Compound 26]
2. COC1CCN(c2ccc(-c3nc4ccccc4o3)cn2)CC1 [Compound 15]

[8.30, 7.41]

Please go through the list and note pIC50 for each compound.
1. OCCC1CCN(c2ccc(-c3nc4ccc(O)cc4s3)cn2)CC1 [Compound 36]
2. NC(=O)c1ccc2nc(-c3cnc(N4CCC(CCO)CC4)nc3)sc2c1 [Compound 41]
3. CCOC(=O)C1CCN(c2ccc(-c3cc4ccc(OC)cc4[nH]3)c(F)n2)CC1 [Compound 63]
4. OCC1CCN(c2ccc(-c3nc4ccc(O)cc4s3)cn2)CC1 [Compound 55]
5. OCC1CCN(c2ccc(-c3nc4ccccc4s3)cn2)CC1 [Compound 1]
6. COc1ccc2[nH]c(-c3ccc(N4CCC(CCO)CC4)nc3)cc2c1 [Compound 51]
7. Oc1ccc2[nH]c(-c3cnc(N4CCC(CF)CC4)nc3)cc2c1 [Compound 69]

1: 8.52; 2: 8.00; 3: 8.64; 4: 8.15; 5: 7.72; 6: 7.89; 7: 8.00
